experimental.system: GST-tagged-Wee1 kinase (Homo sapiens)
Construct: purchased Carnabio 05-177
Sequence (P30291 whole entry): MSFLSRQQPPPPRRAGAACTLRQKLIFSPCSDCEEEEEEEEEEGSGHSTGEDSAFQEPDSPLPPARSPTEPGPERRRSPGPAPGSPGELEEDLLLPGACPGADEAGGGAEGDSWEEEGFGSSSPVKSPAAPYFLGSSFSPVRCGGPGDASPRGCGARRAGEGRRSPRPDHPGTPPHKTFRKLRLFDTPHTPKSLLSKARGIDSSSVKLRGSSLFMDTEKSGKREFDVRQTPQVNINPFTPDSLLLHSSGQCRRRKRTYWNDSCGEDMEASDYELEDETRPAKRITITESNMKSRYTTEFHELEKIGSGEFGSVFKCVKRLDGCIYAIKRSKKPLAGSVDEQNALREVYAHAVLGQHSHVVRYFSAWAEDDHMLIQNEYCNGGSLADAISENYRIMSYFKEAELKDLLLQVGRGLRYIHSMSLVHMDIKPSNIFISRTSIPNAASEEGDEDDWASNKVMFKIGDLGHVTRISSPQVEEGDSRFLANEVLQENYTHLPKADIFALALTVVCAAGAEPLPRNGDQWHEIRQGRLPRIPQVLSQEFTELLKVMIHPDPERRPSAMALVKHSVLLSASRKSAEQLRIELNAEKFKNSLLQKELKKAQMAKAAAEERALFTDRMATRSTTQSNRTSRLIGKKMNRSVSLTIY
method.summary: Wee1 time-resolved fluorescence equilibrium binding assay (displacement of Oregon Green-labeled ATP-competitive kinase probe)
condition.context: enzyme binding data; GST-tagged-Wee1 kinase 2 nM, fluorescent probe 300 nM, inhibitor 0.003 to 10 micromolar, 1 hour incubation; read-out: Wee-1 binding (Ki nM)
measured.property: Ki (nM)

[I] Cc1cn(-c2c(Cl)cccc2Cl)c(=O)c2cnc(Nc3ccc(N[C@H]4CC[C@@H](N(C)C)CC4)cc3)nc12
[II] C=Cc1cn(-c2c(F)cccc2Cl)c(=O)c2cnc(Nc3ccc(N4CCN(C)CC4)cc3)nc12
q: Between I and II , whose recorded Ki is greater? Refer to your chosen item by its label in the answer.
a: I
(I: 0.5 nM, II: 0.3 nM)
